- Tested on: HCT-15
- Test Settings: read-out: 50% lethal concentration (LC50); HCT-15, Colon
Readout Label: CC50

Q: // returns reported CC50 for input C=C1CCC2C3(C)COC(c4cn(-c5ccccc5)nc4-c4ccccc4)OC3CCC2(C)C1CC=C1C(=O)OCC1O (stereo not drawn)
Ans: 6.91 µM

Q: What does the record list as CC50 for C=C1CCC2C3(C)COC(c4cn(-c5ccccc5)nc4-c4ccc(OC)cc4)OC3CCC2(C)C1CC=C1C(=O)OCC1O (stereo not drawn) ?
Ans: 7.2 µM

Q: Returns the measured CC50 for the input compound. Input: C=C1CCC2C3(C)COC(c4cn(-c5ccccc5)nc4-c4ccc(Br)cc4)OC3CCC2(C)C1CC=C1C(=O)OCC1O (stereo not drawn)
Ans: 6.83 µM
